Where these numbers come from: patent US20250059164A1

biological target: IRAK4 (Homo sapiens, UniProt Q9NWZ3); construct: endogenous in cells; host or cells: OCI-LY10; test: IRAK4 MSD degradation in OCI-LY10; assay type: cell-based; details: OCI-LY10 cells, 24 hrs, Meso Scale Discovery
Sequence (Q9NWZ3 whole entry): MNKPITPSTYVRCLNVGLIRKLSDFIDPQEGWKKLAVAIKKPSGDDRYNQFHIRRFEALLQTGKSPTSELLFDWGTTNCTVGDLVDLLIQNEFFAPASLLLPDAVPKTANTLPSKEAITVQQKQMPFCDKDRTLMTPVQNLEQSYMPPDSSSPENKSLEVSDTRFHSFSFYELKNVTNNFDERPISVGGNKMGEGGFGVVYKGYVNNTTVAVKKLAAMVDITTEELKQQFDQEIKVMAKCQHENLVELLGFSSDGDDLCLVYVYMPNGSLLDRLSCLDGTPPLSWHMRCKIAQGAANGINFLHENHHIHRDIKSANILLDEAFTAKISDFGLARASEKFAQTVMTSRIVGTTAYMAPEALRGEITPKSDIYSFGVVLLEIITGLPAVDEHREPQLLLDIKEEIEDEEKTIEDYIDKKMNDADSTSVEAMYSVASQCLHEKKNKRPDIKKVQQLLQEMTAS
Parameter Measured: DC50

Example molecules with recorded DC50:
Molecule	Parameter Measured	Result
CN(C[C@H]1C[C@H](n2cc(NC(=O)c3cnn4ccc(N5C[C@H]6C[C@@H]5CO6)nc34)c(C(F)F)n2)C1)[C@H]1CCN(c2cccc3c2n(C)c(=O)n3C2CCC(=O)NC2=O)C[C@@H]1F (single isomer, unassigned)	DC50	< 10 nM
Cn1c(=O)n(C2CCC(=O)NC2=O)c2cccc([C@@H]3CCN(C[C@H]4CC[C@H](c5cn6cc(NC(=O)c7cncc(C(F)(F)F)n7)c(C(C)(C)O)cc6n5)CC4)C[C@H]3F)c21 (stereo partly drawn)	DC50	< 10 nM

# ---- query molecule ----
The measured DC50 associated with O=C1CCC(c2ccc(N3CC(N4CCN([C@H]5CC[C@H](n6cc(NC(=O)c7cnn8ccc(N9C[C@H]%10C[C@@H]9CO%10)nc78)c(C(F)F)n6)CC5)CC4)C3)cc2Cl)C(=O)N1 (single isomer, unassigned) reads < 10 nM
